TEST: In vitro cytotoxicity evaluated in mouse heart endotheliaoma cell (MHEC5-T) after incubation of the cells for 1 hr
Assay type: functional, cell-based
pIC50: −log10 of the molar value.

{"COMPOUND": "CCCCOP(=O)(OCCCC)Oc1cc(/C=C\\c2cc(OC)c(OC)c(OC)c2)ccc1OC", "REL": "=", "pIC50": 5.10}
{"COMPOUND": "COc1ccc(/C=C\\c2cc(OC)c(OC)c(OC)c2)cc1OP(=O)(O)OCC(F)(F)F.N", "REL": "=", "pIC50": 5.00}
{"COMPOUND": "COc1ccc(/C=C\\c2cc(OC)c(OC)c(OC)c2)cc1OP(=O)(O)Oc1cccc(Cl)c1.N", "REL": "<", "pIC50": 4.60}
{"COMPOUND": "COc1ccc(/C=C\\c2cc(OC)c(OC)c(OC)c2)cc1O", "REL": "=", "pIC50": 5.98}
{"COMPOUND": "COc1ccc(/C=C\\c2cc(OC)c(OC)c(OC)c2)cc1OP(=O)(O)OC1CCCCC1.N", "REL": "<", "pIC50": 4.60}
{"COMPOUND": "COc1ccc(/C=C\\c2cc(OC)c(OC)c(OC)c2)cc1OP(=O)(OC)OC", "REL": "=", "pIC50": 4.46}
{"COMPOUND": "CCCCCCCCOP(=O)(O)Oc1cc(/C=C\\c2cc(OC)c(OC)c(OC)c2)ccc1OC.N", "REL": "=", "pIC50": 4.60}
{"COMPOUND": "COc1ccc(/C=C\\c2cc(OC)c(OC)c(OC)c2)cc1OP(=O)([O-])[O-].[Na+].[Na+] [FOSBRETABULIN DISODIUM]", "REL": "=", "pIC50": 6.10}
{"COMPOUND": "COc1ccc(/C=C\\c2cc(OC)c(OC)c(OC)c2)cc1OCCCS(=O)(=O)[O-].[Na+]", "REL": "<", "pIC50": 4.60}
{"COMPOUND": "COc1ccc(/C=C\\c2cc(OC)c(OC)c(OC)c2)cc1OP(=O)([O-])Oc1cc(/C=C\\c2cc(OC)c(OC)c(OC)c2)ccc1OC.[Na+]", "REL": "<", "pIC50": 4.60}
{"COMPOUND": "COc1ccc(/C=C\\c2cc(OC)c(OC)c(OC)c2)cc1OP(=O)(O)OC.N", "REL": "=", "pIC50": 4.42}

###

TEST: In vitro cytotoxicity evaluated in mouse heart endotheliaoma cell (MHEC5-T) after incubation of the cells for 5 days
Format: functional, cell-based
CONDITION DESCRIPTION: 120 h
pIC50: −log10 of the molar value.
Reported pIC50 values follow for various compounds
METRIC NAME: pIC50

{"COMPOUND": "CCCCCCCCOP(=O)(O)Oc1cc(/C=C\\c2cc(OC)c(OC)c(OC)c2)ccc1OC.N", "METRIC NAME": "pIC50", "REL": "=", "REPORTED MEASUREMENT": 7.15}
{"COMPOUND": "COc1ccc(/C=C\\c2cc(OC)c(OC)c(OC)c2)cc1OCCCS(=O)(=O)[O-].[Na+]", "METRIC NAME": "pIC50", "REL": "<", "REPORTED MEASUREMENT": 4.60}
{"COMPOUND": "COc1ccc(/C=C\\c2cc(OC)c(OC)c(OC)c2)cc1OP(=O)(O)OCC(F)(F)F.N", "METRIC NAME": "pIC50", "REL": "=", "REPORTED MEASUREMENT": 7.22}
{"COMPOUND": "COc1ccc(/C=C\\c2cc(OC)c(OC)c(OC)c2)cc1OP(=O)(O)OC1CCCCC1.N", "METRIC NAME": "pIC50", "REL": "=", "REPORTED MEASUREMENT": 5.52}
{"COMPOUND": "COc1ccc(/C=C\\c2cc(OC)c(OC)c(OC)c2)cc1OP(=O)(O)OC.N", "METRIC NAME": "pIC50", "REL": "=", "REPORTED MEASUREMENT": 7.15}
{"COMPOUND": "COc1ccc(/C=C\\c2cc(OC)c(OC)c(OC)c2)cc1OP(=O)([O-])Oc1cc(/C=C\\c2cc(OC)c(OC)c(OC)c2)ccc1OC.[Na+]", "METRIC NAME": "pIC50", "REL": "=", "REPORTED MEASUREMENT": 6.29}
{"COMPOUND": "CCCCOP(=O)(OCCCC)Oc1cc(/C=C\\c2cc(OC)c(OC)c(OC)c2)ccc1OC", "METRIC NAME": "pIC50", "REL": "=", "REPORTED MEASUREMENT": 6.59}
{"COMPOUND": "COc1ccc(/C=C\\c2cc(OC)c(OC)c(OC)c2)cc1OP(=O)(O)Oc1cccc(Cl)c1.N", "METRIC NAME": "pIC50", "REL": "=", "REPORTED MEASUREMENT": 5.52}
{"COMPOUND": "COc1ccc(/C=C\\c2cc(OC)c(OC)c(OC)c2)cc1OP(=O)(OC)OC", "METRIC NAME": "pIC50", "REL": "=", "REPORTED MEASUREMENT": 6.89}
{"COMPOUND": "COc1ccc(/C=C\\c2cc(OC)c(OC)c(OC)c2)cc1O [COMBRETASTATIN A4]", "METRIC NAME": "pIC50", "REL": "=", "REPORTED MEASUREMENT": 8.40}
{"COMPOUND": "COc1ccc(/C=C\\c2cc(OC)c(OC)c(OC)c2)cc1OP(=O)([O-])[O-].[Na+].[Na+] [FOSBRETABULIN DISODIUM]", "METRIC NAME": "pIC50", "REL": "=", "REPORTED MEASUREMENT": 8.70}
